# System: MOR23-1
# PROCEDURE_DETAILS: High-throughput multiplexed odorant screening (Smell-seq), barcode RNA-seq readout
# Type: cell-based, mouse
# ASSAY_CONTEXT: OR MOR23-1; pair called as hit, FDR=1%
# Description: We subsequently screened 182 odorants at three concentrations in triplicate against the OR cell library, the equivalent of ˜85,000 individual luciferase assays including controls (FIG. 10A, Table 2). Each 96-well plate in the assay contained positive control odorants and solvent DMSO wells for normalization (FIG. 16). We used the EdgeR software package to determine differentially responsive ORs based on a negative binomial model of barcode counts. […]
PROPERTY_LABEL: Minimum Activating Concentration (µM)
The reply should be a number in µM, with the unit left off.

Previously resolved entries follow.
{"columns": ["COMPOUND", "SYSTEM_UNDER_TEST", "UNITS_LABEL", "Minimum Activating Concentration"],
 "data": [
  ["O=C(O)CCCCCBr", "MOR23-1", "µM", 100],
  ["CCCCCCC=O", "MOR23-1", "µM", 1000],
  ["CCCCCCCCC(=O)O", "MOR23-1", "µM", 1000],
  ["CCCCCC(=O)O", "MOR23-1", "µM", 1000],
  ["CCCCCCCCC=O", "MOR23-1", "µM", 1000],
  ["CCCCCCC(Br)C(=O)O (stereo not shown)", "MOR23-1", "µM", 1000]
]}

Turning now to a further record.
# Minimum Activating Concentration lookup, item CCCCCCCC=O
100

Hello, the source for this data is patent US20200255844A1, in case you need it.
